Target: T1, human CD71 extracellular domain (CD71-ECD) (human, UniProt P02786 89-760)
T1 construct: also called hCD71; human CD71-ECD
T1 sequence (P02786 89-760): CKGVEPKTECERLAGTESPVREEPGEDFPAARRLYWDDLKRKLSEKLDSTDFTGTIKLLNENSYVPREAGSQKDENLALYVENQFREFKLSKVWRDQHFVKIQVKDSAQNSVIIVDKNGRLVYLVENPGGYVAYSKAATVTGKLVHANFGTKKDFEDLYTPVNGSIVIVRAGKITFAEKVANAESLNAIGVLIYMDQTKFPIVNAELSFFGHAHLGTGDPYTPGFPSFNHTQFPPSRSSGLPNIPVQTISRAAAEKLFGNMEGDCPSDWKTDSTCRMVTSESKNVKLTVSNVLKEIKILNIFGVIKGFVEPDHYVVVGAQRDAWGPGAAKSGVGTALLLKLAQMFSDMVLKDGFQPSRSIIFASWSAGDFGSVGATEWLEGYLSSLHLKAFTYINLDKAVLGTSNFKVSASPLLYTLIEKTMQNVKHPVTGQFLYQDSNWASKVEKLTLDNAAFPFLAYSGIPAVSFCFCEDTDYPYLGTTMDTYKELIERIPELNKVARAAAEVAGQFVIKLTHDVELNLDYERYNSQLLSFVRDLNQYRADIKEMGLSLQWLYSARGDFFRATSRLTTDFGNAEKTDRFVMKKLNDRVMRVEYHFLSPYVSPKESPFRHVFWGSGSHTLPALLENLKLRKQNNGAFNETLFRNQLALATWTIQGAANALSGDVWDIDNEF
Assay: primary ELISA; also: test concentration or dose not given here
Reported RLU values for a set of binders
// units = RLU; emit number, no label

[
  {
    "BINDER": "CD71-binding FN3 domain SEQ ID NO: 297 (designed binder) MSLPAPKNLVVSRVTEDSARLSWTAPDAAFDSFEISYFENTWYGEAIVLTVPGSERSYDLTGLKPGTEYSVRIFGVKGGNFSFPLSAIFTT",
    "DISPLAY_UNIT": "RLU",
    "RLU": "2.64e+06"
  }
]

Now for a further binder.
I am curious: what RLU value has been reported for CD71-binding FN3 domain SEQ ID NO: 333 (designed binder) MSLPAPENLVVSRVTEDSARLSWTAPDAAFDSFFIGYLEPQPPGEAIALYVPGSERSYDLTGLKPGTEYNVTIQGVKGGFPSLPLVATFTT ?
5.32e+06

Origin of the recorded values: patent US20260151494A1
